Each recorded value in this set is attributed to patent EP0016703A1.

- test-description: in vivo
- study-conditions: rat, in vivo, po, P.O., read-out: DL. 50 rat P.O.

molecule	LD50, mg/kg
CC(C(=O)O)c1ccc(-n2cccc2)c(N)c1 (racemic) [Composé B]	392

* * *

- test-description: in vivo
- study-conditions: mouse, in vivo, iv, souris, I.V.; read-out: DL. 50 souris I.V.

compound	LD50
CC(C(=O)O)c1ccc(-n2cccc2)c(N)c1 (racemic)	> 1600 mg/kg
